Please provide measured protein stability index for the entries that follow.
B1: PKD2L1 (parent)
chain: YSGGGYYLDLPGSRQGSAEALRAL

Variants of: B1
protocol summary: protein stability index of a GFP-peptide fusion (GPS, HEK-293T) (PSI 1-6); higher = more stable;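 note: lentivirally expressed fusions sorted by FACS into six bins by GFP to DsRed ratio, PSI derived from sequencing read proportions per bin multiplied by bin number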
run parameters: c terminus: a fixed tail appended

Example cases with answers are listed next.
Q15K = 2.5
L8M = 3.21
L24W = 1.62
E19H = 1.42

Items follow; give protein stability index for each.
1. Q15W
2. G12R
3. Q15M
4. E19R
5. L8D
6. L8S
7. L10V
8. A20Y

1. 1.73
2. 1.59
3. 2.81
4. 2.16
5. 1.99
6. 1.37
7. 2.17
8. 1.76

Hi there! I need protein stability index for each item below, if you can.
1. G16F
2. A18C
3. D9F
4. G3R
5. S2F
6. G4I
7. A23S
8. G3T

1.38
2.16
3.62
2.47
1.93
1.78
1.86
1.93

Could you report protein stability index for every entry in the following list?
1. A18S
2. A23Y

[1.5, 1.53]
